The values you see were collected from patent US20140107316A1.

- Tested on: folate receptor-positive KB cells
- condition-description: read-out: 50% competition; competed group (excess folic acid)
Entries and their pIC50
Please report pIC50 as the negative decimal logarithm of the molar concentration, giving only the number.

CCCC(=O)OCN(C(=O)[C@@H](NC(=O)[C@H]1CCCCN1C)C(C)CC)C(C[C@@H](OC(C)=O)c1nc(C(=O)N[C@@H](Cc2ccc(O)cc2)C[C@H](C)C(=O)NNC(=O)OCCSSC[C@@H](NC(=O)[C@@H](CC(=O)O)NC(=O)[C@H](CC(=O)O)NC(=O)[C@H](CCCNC(=N)N)NC(=O)[C@H](CC(=O)O)NC(=O)CC[C@H](NC(=O)c2ccc(NCc3cnc4nc(N)[nH]c(=O)c4n3)cc2)C(=O)O)C(=O)O)cs1)C(C)C (stereo partly shown)	6.46

Request: Test system folate receptor-positive KB cells; read-out pIC50; what value for CCCC(=O)OCN(C(=O)[C@@H](NC(=O)[C@H]1CCCCN1C)C(C)CC)[C@H](C[C@@H](OC(C)=O)c1nc(C(=O)N[C@@H](Cc2ccc(O)cc2)C[C@H](C)C(=O)NNC(=O)OCCSSC[C@@H](NC(=O)[C@@H](CC(=O)O)NC(=O)[C@@H](CC(=O)O)NC(=O)[C@@H](CCCNC(=N)N)NC(=O)[C@@H](CC(=O)O)NC(=O)CC[C@@H](NC(=O)c2ccc(NCc3cnc4nc(N)[nH]c(=O)c4n3)cc2)C(=O)O)C(=O)O)cs1)C(C)C (stereo partly shown) ?
Result: 6.15

Request: Identify the measured pIC50 of CCCC(=O)OCN(C(=O)[C@@H](NC(=O)[C@H]1CCCCN1C)C(C)CC)[C@H](C[C@@H](OC(C)=O)c1nc(C(=O)N[C@@H](Cc2ccc(O)cc2)C[C@H](C)C(=O)NNC(=O)OCCSSC(C)(C)[C@@H](NC(=O)[C@@H](CC(=O)O)NC(=O)[C@@H](CC(=O)O)NC(=O)[C@@H](CCCNC(=N)N)NC(=O)[C@@H](CC(=O)O)NC(=O)CC[C@@H](NC(=O)c2ccc(NCc3cnc4nc(N)[nH]c(=O)c4n3)cc2)C(=O)O)C(=O)O)cs1)C(C)C (stereo partly shown) for folate receptor-positive KB cells.
Result: 6.22

Request: Recall the recorded pIC50 for CCCC(=O)OCN(C(=O)[C@@H](NC(=O)[C@H]1CCCCN1C)C(C)CC)[C@H](C[C@@H](OC(C)=O)c1nc(C(=O)N[C@@H](Cc2ccc(O)cc2)C[C@H](C)C(=O)NNC(=O)OCCSSC[C@@H](NC(=O)[C@H](CC(=O)O)NC(=O)[C@H](CC(=O)O)NC(=O)[C@H](CCCNC(=N)N)NC(=O)[C@H](CC(=O)O)NC(=O)CC[C@H](NC(=O)c2ccc(NCc3cnc4nc(N)[nH]c(=O)c4n3)cc2)C(=O)O)C(=O)O)cs1)C(C)C (stereo partly shown) with folate receptor-positive KB cells and state it.
Result: 6.46
